tested on: EKVX NSCLC; experiment: NCI-60 one-dose screen, 48 h; details: 10 µM
Compounds without any hit were thinned out: in the full panel of roughly 83,000, 20% have a hit. Active and inactive are the calls of the source. How the source made its calls: active means growth percent below 10; inactive means the rest.
Hi! Could you answer with just one of these? yes (1) (active), no (0) (inactive)

*Q* For "O=C(N/N=C/c1ccc(B(O)O)o1)c1[nH]c2ccc(Br)cc2c1-c1ccccc1" , what call appears in the results of this test?
*A* no (0)

*Q* Recorded test call requested for "COc1ccc(/C(CSc2nnc(-c3c[nH]c4ccccc34)n2-c2ccccc2)=N/O)cc1"
*A* no (0)

*Q* Write down the call the test reported for this molecule. Item: "COC(=O)C[C@](O)(CCCC(C)(C)O)C(=O)O[C@H]1C(OC)=C[C@@]23CCC(=O)N2CCc2cc4c(cc2[C@@H]13)OCO4"
*A* no (0)

*Q* Please let me know the test result on file for "O=C(NCCCCCCCCCC[P+](c1ccccc1)(c1ccccc1)c1ccccc1)c1ccc(-n2nc(-c3ccccc3O)nc2-c2ccccc2O)cc1" .
*A* yes (1)

*Q* Which outcome was entered for the molecule "Cc1cc(C)nc(NS(=O)(=O)c2ccc(N/C(N)=N/c3nccc(-c4cccs4)n3)cc2)n1" in this test?
*A* no (0)

*Q* Which outcome did this test record for the molecule "CN1CCN(c2ccc(C(=O)/C=C/c3cc(C(F)(F)F)ccc3Cl)cc2)CC1" ?
*A* yes (1)

*Q* Called result for "Cc1cc(C)nc(SCC(=O)Nc2ccc(S(N)(=O)=O)cc2)n1"
*A* no (0)

*Q* What outcome does the record of this test show for "COc1ccc(C(=O)Nc2ccc(-c3ccc4c(c3)NC(=O)/C4=C\c3ccc[nH]3)cc2)cc1" ?
*A* yes (1)
